Target: Abf1 (UniProt P14164)
Sequence: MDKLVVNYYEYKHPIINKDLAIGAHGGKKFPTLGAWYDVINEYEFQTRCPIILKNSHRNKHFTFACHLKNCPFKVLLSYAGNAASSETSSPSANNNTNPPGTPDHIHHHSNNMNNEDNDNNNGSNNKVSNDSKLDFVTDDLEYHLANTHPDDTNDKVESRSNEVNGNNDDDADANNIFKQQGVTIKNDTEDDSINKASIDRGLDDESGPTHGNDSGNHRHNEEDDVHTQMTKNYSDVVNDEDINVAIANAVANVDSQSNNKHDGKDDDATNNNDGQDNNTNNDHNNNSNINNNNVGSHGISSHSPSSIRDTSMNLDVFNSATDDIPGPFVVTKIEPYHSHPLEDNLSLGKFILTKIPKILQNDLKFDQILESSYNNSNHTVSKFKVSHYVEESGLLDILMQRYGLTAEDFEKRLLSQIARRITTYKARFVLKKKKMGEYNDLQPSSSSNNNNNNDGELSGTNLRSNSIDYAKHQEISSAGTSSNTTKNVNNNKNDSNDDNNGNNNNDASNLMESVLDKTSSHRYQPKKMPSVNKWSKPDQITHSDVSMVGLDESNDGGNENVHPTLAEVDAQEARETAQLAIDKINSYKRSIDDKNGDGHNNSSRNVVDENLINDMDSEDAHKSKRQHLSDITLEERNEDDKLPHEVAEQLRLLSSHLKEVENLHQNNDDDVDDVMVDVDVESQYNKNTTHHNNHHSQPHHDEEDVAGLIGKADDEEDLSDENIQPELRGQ
Assay: PBM E-score (8-mer binding enrichment) (E-score (-0.5 to 0.5)); higher = stronger / more preferred TF binding
Conditions: protein concentration: 200 nM; construct: GST-full length
In all, about 33,000 sequences were measured (“E-score (-0.5 to 0.5)”: median about -0.015, highest 2% from about 0.3 on). What follows is part of a selection rich in the highest values, with near analogues and random picks from the rest.
Assign PBM E-score to each entry below.
Give your answer as a number; write no unit.

Ask: So what's the measured PBM E-score for this one? TCGTATCA
Reply: 0.331

Ask: Try ATCACTAC next.
Reply: 0.375

Ask: Try ACGTATCT next.
Reply: -0.0664

Ask: Try ATGATGCG next.
Reply: 0.104

Ask: Try ATGACATA next.
Reply: 0.401

Ask: Try TCATCAGA next.
Reply: 0.094

Ask: Try ATGACAGA next.
Reply: 0.128
